Listing of entries alongside the reported glycan array binding signal (z-score).
# experimentalSystem: Fuc(a1-2)Gal(b1-3)GalNAc(a1-3)[Fuc(a1-2)]Gal(b1-4)Glc
# testDetails: glycan array binding signal (z-score within array); higher = stronger binding
# conditionInfo: glycan notation: IUPAC condensed, linker removed
This excerpt belongs to a sample that is enriched for the strongest signals.
metric: glycan array binding signal (z-score)

[[record]]
binder = "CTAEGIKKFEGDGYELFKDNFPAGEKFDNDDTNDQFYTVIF [MUB40 (Lactobacillus reuteri)]"
metric = "glycan array binding signal (z-score)"
reportedvalue = -0.41

[[record]]
binder = "Drgal1 (Danio rerio) (protein) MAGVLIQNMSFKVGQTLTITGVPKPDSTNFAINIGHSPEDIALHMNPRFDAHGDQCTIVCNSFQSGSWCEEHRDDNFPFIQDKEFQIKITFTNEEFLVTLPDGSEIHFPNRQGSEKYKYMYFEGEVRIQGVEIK"
metric = "glycan array binding signal (z-score)"
reportedvalue = -0.59

[[record]]
binder = "AAA (Anguilla anguilla), Q7SIC1 (protein) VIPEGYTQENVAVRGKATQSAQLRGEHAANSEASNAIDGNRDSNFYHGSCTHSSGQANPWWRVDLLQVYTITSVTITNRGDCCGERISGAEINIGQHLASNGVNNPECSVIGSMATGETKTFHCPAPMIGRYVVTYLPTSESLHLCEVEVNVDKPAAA"
metric = "glycan array binding signal (z-score)"
reportedvalue = -0.257


Values from the supplement of paper PMC8728848
